- experiment notes: MRP1 drug-resistance reversers in H69AR cells – cell-based, doxorubicin co-treatment, pilot screen (AID 601)
- cond: H69AR cells + 2 uM doxorubicin, CellTiter-Glo, 72 h; at 10 µM; stronger effect = higher value
measured parameter: differential viability (reversal) (%)
Supply the numeric figure in %, leaving out any unit text.

compound="CCCCCCCCNC(C)C(O)c1ccc(SC(C)C)cc1 (stereo unspecified)" measured_parameter="differential viability (reversal)" measured_number=-0.28

Lookup: What value of differential viability (reversal) has been reported for the following compound? CC(C)(C)n1nnnc1CN(Cc1ccco1)Cc1cc2cc3c(cc2[nH]c1=O)OCO3
Found: -8.75

Lookup: Form field: reported differential viability (reversal) of O=C(Nc1ccc2c(c1)C(=O)N(C1CCCCC1)C2=O)C1CCCO1 (stereo unspecified)
Found: -1.69

Lookup: Which differential viability (reversal) is reported for this compound? O=C(NC1CC2CCC1C2)c1ccc(CN2CCOCC2)cc1 (stereo unspecified)
Found: 2.98

Lookup: Query (compound): CC[C@H]1CN2CCc3cc(OC)c(OC)cc3[C@@H]2C[C@@H]1C[C@H]1NCCc2cc(OC)c(OC)cc21 ; field requested: differential viability (reversal)
Found: 10.2

Lookup: Value lookup for differential viability (reversal); key = CC1(c2ccc(OC(F)F)cc2)NC(=O)N(CC(=O)Nc2ccc3c(c2)OCO3)C1=O (stereo unspecified)
Found: -2.95

###

- experiment notes: doxorubicin toxicity protection in MRP-1 cells – H69AR cells, CellTiter-Glo, duplicate, MRP-1 activator project, pilot screen (AID 807);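 also: compound pretreatment 18-22 h then 72 h combined with doxorubicin; 0% = doxorubicin alone and 100% = vehicle without doxorubicin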
- cond: H69AR viability with doxorubicin, CellTiter-Glo luminescence; at 10 µM; stronger effect = higher value
measured parameter: viability increase (%)
Answer format: numeric, % implied, no suffix.

compound=CN(C)c1ccc(CN(C)C2CCCCC2)cc1 measured_parameter="viability increase" measured_number=-1.65

Lookup: GET /values?readout=viability increase&item= COC(=O)c1ccc(CSc2ccc3nnc(-c4cccc(F)c4)n3n2)o1
Found: -3.24

Lookup: State the recorded viability increase for this entry: Cc1cc(NC(=O)c2noc3c2CCc2ccccc2-3)n(-c2ccccc2)n1
Found: -2.71

Lookup: Looking for the measured viability increase of Nc1ccc(S(=O)(=O)N2CCCc3ccccc32)cc1 , can you help?
Found: -3.42

Lookup: Value lookup for viability increase; key = Cn1c(SCc2ccccc2Cl)nnc1-c1cnccn1
Found: -1.15

###

Listed compounds paired with reported viability
- experiment notes: MRP1 drug-resistance reversers in H69AR cells – cell-based, doxorubicin co-treatment, pilot screen (AID 601)
- cond: H69AR cells, CellTiter-Glo, 72 h; compound alone cytotoxicity; at 10 µM
Report the figure along with its unit, number first.

Reference set, count: 5
compound="CC1Cc2ccccc2N1C(=O)Cc1cccs1 (stereo unspecified)" measured_parameter=viability result=108%
compound="CC(NCCC(c1ccccc1)c1ccccc1)c1ccccc1 (stereo unspecified)" measured_parameter=viability result=1.54%
compound=CC(C)NC(=O)NC(=O)COc1cccc2c1OC(C)(C)C2 measured_parameter=viability result=105%
compound=Cc1ccc(S(=O)(=O)N(C)CC(=O)NC2CCCC2)cc1 measured_parameter=viability result=102%
compound=CC(C)Cn1c(N)c(C(=O)NCCN2CCOCC2)c2nc3ccccc3nc21 measured_parameter=viability result=55.7%

Lookup: Return reported viability; argument: COc1ccc(-c2coc3c(CN4CCCCC4)c(O)c(CN4CCCCC4)c(O)c3c2=O)cc1
Found: 1.48%

Lookup: Which viability value belongs to CCCc1n[nH]c2c1/C(=N/O)CC(c1ccccc1)C2 (stereo unspecified) ?
Found: 66.1%

Lookup: Which viability value belongs to CCN1C(=O)/C(=C/N2CCc3ccccc32)SC1=S ?
Found: 58.5%

Lookup: Name the reported viability value associated with the compound CN(c1ccccc1)S(=O)(=O)c1cc(C(=O)N2CCN(c3ccccn3)CC2)ccc1Cl
Found: 88.5%

Lookup: Recorded viability of Nc1nc(CN2CCOCC2)cs1 , please.
Found: 100%

Lookup: Please give the measured viability for this compound: CC(C)(C)n1nnnc1CN(Cc1ccco1)Cc1cc2cc3c(cc2[nH]c1=O)OCO3
Found: 59.3%

Where these numbers come from: PubChem BioAssay
